Below, each entry is listed alongside its reported G/D (fold bias).
Molecular target: Cell-associated proTGFβ1 (hGARP-proTGFβ1 and hLRRC33-proTGFβ1)
Assay: BLI (Octet); Cell AVRG over ECM AVRG

{"binder": "Ab28 (antibody, V domains shown) VH: EVQLVESGGGLVQPGGSLRLSCAASGFTFSSFSMDWVRQAPGKGLEWVSYISPDASTIYYADSVKGRFTISRDNAKNSLYLQMNSLRAEDTAVYYCVRGVLDYGDMLDPWGQGTLVTVSS VL: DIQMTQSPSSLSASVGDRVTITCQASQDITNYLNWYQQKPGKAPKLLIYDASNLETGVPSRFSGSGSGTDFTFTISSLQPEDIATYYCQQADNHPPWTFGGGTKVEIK", "G/D (fold bias) [fold]": 1.84}
{"binder": "Ab30 (antibody, V domains shown) VH: EVQLVESGGGLVQPGGSLRLSCAASGFTFSSFSMDWVRQAPGKGLEWVSYISPDASTIYYADSVKGRFTISRDNAKNSLYLQMNSLRAEDTAVYYCARGTLDYGDMLDPWGQGTLVTVSS VL: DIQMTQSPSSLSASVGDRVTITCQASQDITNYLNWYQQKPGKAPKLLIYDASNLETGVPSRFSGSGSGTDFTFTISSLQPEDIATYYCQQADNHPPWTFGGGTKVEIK", "G/D (fold bias) [fold]": 2.31}
{"binder": "Ab22 (antibody, V domains shown) VH: EVQLVESGGGLVQPGGSLRLSCAASGFTFGSFSMNWVRQAPGKGLEWVSYIHSDASTIYYADSVKGRFTISRDNAKNSLYLQMNSLRAEDTAVYYCARGVLDYGDMLDPWGQGTLVTVSS VL: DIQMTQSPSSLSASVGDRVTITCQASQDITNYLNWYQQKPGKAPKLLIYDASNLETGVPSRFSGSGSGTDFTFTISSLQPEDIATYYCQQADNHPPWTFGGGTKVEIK", "G/D (fold bias) [fold]": 2.15}
